System: 327498-153-R-J2-PDC complex spheroid growth, % test/control;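 note: spheroids exposed to compound for 7 days after 3 days of growth; 100% = DMSO vehicle control wells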
Assay: Anticancer human tumor 327498-153-R-J2-PDC patient-derived uterine carcinosarcoma cell line growth inhibition [Asc]
Settings: second compound 0.316 µM; first compound 0.316 µM; active compounds read low
MEASURED_METRIC: viability, T/C (%)

>>> endpoint_result("C=CC(=O)N1CCN(c2nc(=O)n(-c3c(C)ccnc3C(C)C)c3nc(-c4c(O)cccc4F)c(F)cc23)C(C)C1 (stereo not drawn) + Cc1c(S(C)(=O)=O)c(-c2cc(F)cc(N3CCN(c4ccc(NS(=O)(=O)c5ccc(NC(CCN6CCC(C(=O)OCCCP(=O)(O)O)CC6)CSc6ccccc6)c(S(=O)(=O)C(F)(F)F)c5)cc4)CC3)c2)c(-c2ccc(Cl)cc2)n1C(C)C")
62.4
>>> endpoint_result("O=C(c1cc(Cc2n[nH]c(=O)c3ccccc23)ccc1F)N1CCN(C(=O)C2CC2)CC1 + CNC(C)C(=O)NC1CN(S(=O)(=O)c2cccc(S(=O)(=O)N3CCC4CCC(C(=O)NC(c5ccccc5)c5ccccc5)N4C(=O)C(NC(=O)C(C)NC)C3)c2)CCC2CCC(C(=O)NC(c3ccccc3)c3ccccc3)N2C1=O")
94.5
>>> endpoint_result("CCN1CCN(Cc2ccc(Nc3ncc(F)c(-c4cc(F)c5nc(C)n(C(C)C)c5c4)n3)nc2)CC1 + Cc1c(S(C)(=O)=O)c(-c2cc(F)cc(N3CCN(c4ccc(NS(=O)(=O)c5ccc(NC(CCN6CCC(C(=O)OCCCP(=O)(O)O)CC6)CSc6ccccc6)c(S(=O)(=O)C(F)(F)F)c5)cc4)CC3)c2)c(-c2ccc(Cl)cc2)n1C(C)C")
49.7

// provenance: PubChem BioAssay AID1963424
